In this section, each of the compounds is paired with its reported IC50.
Test system: SARS-CoV-2
assay_comment: Anti-SARS-CoV-2 activity, detection of viral genomes by RT-qPCR on infected cells
Type: cell-based
assay_context: Table 3; RT-qPCR of viral genomes, Vero E6 cells infected with SARS-CoV-2; read-out: IC50 (μM) SARS-CoV-2
All answers are understood in µM, so give the number only.

CCCN1CCN(CCCC2CCCc3c(OC)cccc32)CC1 (racemic) ... 2.26

Kindly consider the entry below.
COc1cccc2c1CCCC2CCCN1CCN(C)CC1 (racemic) has a reported IC50 of 5.78

====

measured_on: S1R (Cavia porcellus)
Construct: [^3H]-( +)-Pentazocine on guinea pig brain according to the generally accepted protocol; from tissue; host or cells: guinea pig brain
Sequence (Q60492 whole entry): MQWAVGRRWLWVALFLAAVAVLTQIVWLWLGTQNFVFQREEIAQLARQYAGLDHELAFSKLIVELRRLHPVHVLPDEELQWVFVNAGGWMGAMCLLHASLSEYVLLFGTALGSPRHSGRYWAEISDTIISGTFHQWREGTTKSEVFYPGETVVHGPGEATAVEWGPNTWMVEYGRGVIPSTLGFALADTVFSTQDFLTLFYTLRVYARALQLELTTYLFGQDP
assay_comment: S1R radioligand binding assay, [3H]-(+)-Pentazocine on guinea pig brain
assay_context: Table 1, compound 6 (no reference cited)
measured_metric: Ki (nM)
All answers are understood in nM, so give the number only.

COc1cccc2c1CCCC2CCCCCCN1CCN(C2CCCCC2)CC1 (racemic) [Compound 6] has a reported Ki of 3.07
